# Survival (days) 10 mg/kg SSV po annotations
# Test system: ANKA strain of P. berghei
# protocolSummary: Single dose STI in vivo screen in infected mice
# Set-up: species or system Plasmodium berghei
# settings: single 10 mg/kg po in SSV; untreated 6-7 days
Report the value in days with no unit label.

compound: CN1CCN(C(=O)NC[C@H]2CC[C@]3(CC2)OOC2(O3)C3CC4CC(C3)CC2C4)CC1 (stereo partly shown) [OZ267]
Survival (days) 10 mg/kg SSV po: 8.7
--
compound: CS(=O)(=O)NC[C@H]1CC[C@]2(CC1)OOC1(O2)C2CC3CC(C2)CC1C3 (stereo partly shown) [OZ257]
Survival (days) 10 mg/kg SSV po: 7.7
--
compound: NC1(C(=O)NC[C@H]2CC[C@]3(CC2)OO[C@]2(O3)C3CC4CC(C3)CC2C4)CCCC1 [OZ317]
Survival (days) 10 mg/kg SSV po: 9.8

Turning now to a further compound:
The compound listed as O=C(N1CCCC1)N1CCC2(CC1)OOC1(O2)C2CC3CC(C2)CC1C3 (stereo not shown) [OZ203] shows Survival (days) 10 mg/kg SSV po equal to 8.7

###

# Test system: ANKA strain of P. berghei
# protocolSummary: Single dose STI in vivo screen in infected mice
# Set-up: species or system Plasmodium berghei
# settings: single 10 mg/kg po in SSV; untreated 6-7 days
Counter-ions that a name gives are not always drawn.
Rule: criterion met for Survival (days) 10 mg/kg SSV po not less than 7 days, criterion not met for anything less.

Solved entries:
molecule: O=C(O)COCC(=O)N1CCC2(CC1)OOC1(O2)C2CC3CC(C2)CC1C3 (centres unmarked)
cat: criterion not met
--
molecule: COCC(=O)N[C@H]1CC[C@]2(CC1)OOC1(O2)C2CC3CC(C2)CC1C3 (some centres unmarked)
cat: criterion met
--
molecule: C=C1COC2(CCC3(CC2)OOC2(O3)C3CC4CC(C3)CC2C4)OC1 (centres unmarked)
cat: criterion met
--
molecule: O=S(=O)(c1cccc2cccnc12)N1CCC2(CC1)OOC1(O2)C2CC3CC(C2)CC1C3 (centres unmarked)
cat: criterion not met

Asked: Is reported Survival (days) 10 mg/kg SSV po greater than or equal to 7 days here: Nc1nccnc1C(=O)NC[C@H]1CC[C@]2(CC1)OO[C@]1(O2)C2CC3CC(C2)CC1C3
Given back: criterion met

Asked: Is reported Survival (days) 10 mg/kg SSV po greater than or equal to 7 days here: O=C(O)C1(c2ccccc2)CCC2(CC1)OOC1(O2)C2CC3CC(C2)CC1C3 (centres unmarked)
Given back: criterion not met

Asked: Is reported Survival (days) 10 mg/kg SSV po greater than or equal to 7 days here: c1cnc(OC[C@H]2CC[C@]3(CC2)OO[C@]2(O3)C3CC4CC(C3)CC2C4)nc1
Given back: criterion met

Asked: Is reported Survival (days) 10 mg/kg SSV po greater than or equal to 7 days here: O=C(OC1CCC2(CC1)OOC1(O2)C2CC3CC(C2)CC1C3)n1ccnc1 (centres unmarked)
Given back: criterion met

Asked: Is reported Survival (days) 10 mg/kg SSV po greater than or equal to 7 days here: CN(C)C(=O)NC[C@H]1CC[C@]2(CC1)OOC1(O2)C2CC3CC(C2)CC1C3 (some centres unmarked)
Given back: criterion met

Asked: Is reported Survival (days) 10 mg/kg SSV po greater than or equal to 7 days here: O=C(Cn1ccnc1)N1CCC2(CC1)OOC1(O2)C2CC3CC(C2)CC1C3 (centres unmarked)
Given back: criterion not met

Asked: Is reported Survival (days) 10 mg/kg SSV po greater than or equal to 7 days here: N[C@H]1CC[C@]2(CC1)OOC1(O2)C2CC3CC(C2)CC1C3 (some centres unmarked) [OZ137, hydrochloride]
Given back: criterion not met

Asked: Is reported Survival (days) 10 mg/kg SSV po greater than or equal to 7 days here: NC(=O)CN(CC(N)=O)C[C@H]1CC[C@]2(CC1)OOC1(O2)C2CC3CC(C2)CC1C3 (some centres unmarked)
Given back: criterion met
